# Tested on: HORMU
# Test protocol: Post-emergence herbicidal effect against HORMU
# Assay type: in vivo, Hordeum murinum
# Experimental parameters: one-leaf stage, 80 g/ha, assessed visually after about 3 weeks vs untreated controls, 100% = plants have died
# Protocol: Seeds of monocotyledonous and dicotyledonous weed and crop plants are laid out in sandy loam soil in wood-fiber pots, covered with soil and cultivated in a greenhouse under good growth conditions. 2 to 3 weeks after sowing, the test plants are treated at the one-leaf stage. […]
Reported Post-emergence action [%] against HORMU values for a set of compounds
Measurement kind: Post-emergence action [%] against HORMU (%)

Compound: CC#Cc1cc(C)c(C2=C(OC(=O)OCC)C3(CCC(OC)CC3)NC2=O)c(Cl)c1 (stereo not drawn) [Example P11]
Measurement units: %
Quantitative readout: 90

Compound: CC#Cc1cc(C)c(C2=C(OC(=O)OCC)C3(CCCC(OCCC)C3)NC2=O)c(Cl)c1 (stereo not drawn) [Example Q5]
Measurement units: %
Quantitative readout: 100

Compound: CC#Cc1cc(C)c(C2=C(OC(=O)OC)C3(CCC(OC)CC3)NC2=O)c(Cl)c1 (stereo not drawn) [Example P10]
Measurement units: %
Quantitative readout: 100

Compound: CC#Cc1cc(C)c(C2=C(O)C3(CCCC(OCCC)C3)NC2=O)c(Cl)c1 (stereo not drawn) [Example D1]
Measurement units: %
Quantitative readout: 100

Compound: CC#Cc1cc(C)c(C2=C(OC(=O)OCC)C3(CCC(OC(C)C)CC3)NC2=O)c(Cl)c1 (stereo not drawn) [Example P15]
Measurement units: %
Quantitative readout: 90

Compound: CC#Cc1cc(C)c(C2=C(O)C3(CCC(OCC)CC3)NC2=O)c(Cl)c1 (stereo not drawn) [Example E10]
Measurement units: %
Quantitative readout: 100

Compound: CC#Cc1cc(C)c(C2=C(OC(=O)C(C)C)C3(CCC(OC)CC3)NC2=O)c(Cl)c1 (stereo not drawn) [Example P12]
Measurement units: %
Quantitative readout: 100

Compound: CC#Cc1cc(C)c(C2=C(O)C3(CCC(OC(C)C)CC3)NC2=O)c(Cl)c1 (stereo not drawn) [Example E13]
Measurement units: %
Quantitative readout: 100

Compound: C=CCOC1CCC2(CC1)NC(=O)C(c1c(C)cc(C#CC)cc1Cl)=C2O (stereo not drawn) [Example E7]
Measurement units: %
Quantitative readout: 90

====

# Tested on: AVEFA
# Test protocol: Pre-emergence herbicidal effect against AVEFA
# Format: in vivo, Avena fatua
# Experimental parameters: 320 g/ha, scored visually after 3 weeks vs untreated controls, 100% = plants have died
Reported Pre-emergence action [%] against AVEFA values for a set of compounds

Compound: CC#Cc1cc(Cl)c(C2=C(O)C3(CCC(OC)CC3)NC2=O)c(C2CC2)c1 (centres unmarked) [Example E24]
Pre-emergence action [%] against AVEFA: 100%

Compound: CC#Cc1cc(C)c(C2=C(OC(=O)OC)C3(CCCC(OCC(C)C)C3)NC2=O)c(Cl)c1 (centres unmarked) [Example Q6]
Pre-emergence action [%] against AVEFA: 90%

Compound: CC#Cc1cc(Cl)c(C2=C(O)C3(CCC(OCC)CC3)NC2=O)c(CC)c1 (centres unmarked) [Example E12]
Pre-emergence action [%] against AVEFA: 90%

Compound: CC#Cc1cc(Cl)c(C2=C(OC(=O)OCC)C3(CCC(OCCOC)CC3)NC2=O)c(CC)c1 (centres unmarked) [Example P23]
Pre-emergence action [%] against AVEFA: 80%

Compound: CC#Cc1cc(C)c(C2=C(OC(=O)OCC)C3(CCC(OC)CC3)NC2=O)c(Br)c1 (centres unmarked) [Example P13]
Pre-emergence action [%] against AVEFA: 100%

Compound: CC#Cc1cc(C)c(C2=C(O)C3(CCCC(OCCOC)C3)NC2=O)c(Br)c1 (centres unmarked) [Example D6]
Pre-emergence action [%] against AVEFA: 100%

Compound: CC#Cc1cc(Cl)c(C2=C(OC(=O)OC)C3(CCC(OCC)CC3)NC2=O)c(CC)c1 (centres unmarked) [Example P26]
Pre-emergence action [%] against AVEFA: 90%

Compound: CC#Cc1cc(C)c(C2=C(O)C3(CCCC(OCCC)C3)NC2=O)c(Br)c1 (centres unmarked) [Example D5]
Pre-emergence action [%] against AVEFA: 100%

====

# System: AVEFA
# Test protocol: Pre-emergence herbicidal effect against AVEFA
# Format: in vivo, Avena fatua
# Experimental parameters: 320 g/ha, scored visually after 3 weeks vs untreated controls, 100% = plants have died

Molecule: CC#Cc1cc(Br)c(C2=C(OC(=O)OCC)C3(CCC(OC)CC3)NC2=O)c(C2CC2)c1 (centres unmarked)
Pre-emergence action [%] against AVEFA [%]: 100
--
Molecule: CC#Cc1cc(Cl)c(C2=C(OC(=O)C(C)C)C3(CCC(OCC)CC3)NC2=O)c(CC)c1 (centres unmarked)
Pre-emergence action [%] against AVEFA [%]: 90
--
Molecule: CC#Cc1cc(Cl)c(C2=C(OC(=O)OCC)C3(CCC(OC)CC3)NC2=O)c(C2CC2)c1 (centres unmarked)
Pre-emergence action [%] against AVEFA [%]: 100
--
Molecule: CC#Cc1cc(Cl)c(C2=C(OC(=O)OCC)C3(CCC(OC)CC3)NC2=O)c(CC)c1 (centres unmarked)
Pre-emergence action [%] against AVEFA [%]: 100
--
Molecule: CC#Cc1cc(C)c(C2=C(O)C3(CCC(OC)CC3)NC2=O)c(Br)c1 (centres unmarked)
Pre-emergence action [%] against AVEFA [%]: 100
--
Molecule: CC#Cc1cc(Cl)c(C2=C(OC(=O)OC)C3(CCC(OC)CC3)NC2=O)c(CC)c1 (centres unmarked)
Pre-emergence action [%] against AVEFA [%]: 100
--
Molecule: CC#Cc1cc(C)c(C2=C(OC(=O)OCC)C3(CCCC(OCCOC)C3)NC2=O)c(Br)c1 (centres unmarked)
Pre-emergence action [%] against AVEFA [%]: 100
--
Molecule: CC#Cc1cc(Cl)c(C2=C(OC(=O)C(C)C)C3(CCC(OC)CC3)NC2=O)c(CC)c1 (centres unmarked)
Pre-emergence action [%] against AVEFA [%]: 100

====

# Test system: ECHCG
# Test protocol: Post-emergence herbicidal effect against ECHCG
# Format: in vivo, Echinochloa crus-galli
# Experimental parameters: one-leaf stage, 80 g/ha, assessed visually after about 3 weeks vs untreated controls, 100% = plants have died
Measurement kind: Post-emergence action [%] against ECHCG (%)

Compound: CC#Cc1cc(Cl)c(C2=C(OC(=O)OC)C3(CCC(OCCOC)CC3)NC2=O)c(CC)c1 (stereo not shown) [Example P28]
Quantitative readout: 80
--
Compound: CC#Cc1cc(C)c(C2=C(OC(=O)OCC)C3(CCC(OC)CC3)NC2=O)c(Br)c1 (stereo not shown) [Example P13]
Quantitative readout: 100
--
Compound: CC#Cc1cc(Cl)c(C2=C(OC(=O)OCC)C3(CCC(OC)CC3)NC2=O)c(CC)c1 (stereo not shown) [Example P21]
Quantitative readout: 100
--
Compound: CC#Cc1cc(C)c(C2=C(OC(=O)OCC)C3(CCC(OC(C)C)CC3)NC2=O)c(Cl)c1 (stereo not shown) [Example P15]
Quantitative readout: 100

====

Reported Pre-emergence action [%] against AVEFA values for a set of compounds
# Test system: AVEFA
# Test protocol: Pre-emergence herbicidal effect against AVEFA
# Type: in vivo, Avena fatua
# Experimental parameters: 320 g/ha, scored visually after 3 weeks vs untreated controls, 100% = plants have died
Measurement kind: Pre-emergence action [%] against AVEFA (%)

Compound: CC#Cc1cc(C)c(C2=C(O)C3(CCC(OCCOC)CC3)NC2=O)c(Cl)c1 (stereo not shown)
Measurement units: %
Quantitative readout: 100
//
Compound: CC#Cc1cc(C)c(C2=C(OC(=O)OCC)C3(CCC(OCCOC)CC3)NC2=O)c(Cl)c1 (stereo not shown)
Measurement units: %
Quantitative readout: 100
//
Compound: CC#Cc1cc(Cl)c(C2=C(OC(=O)OC(C)(C)C)C3(CCC(OCCOC)CC3)NC2=O)c(CC)c1 (stereo not shown)
Measurement units: %
Quantitative readout: 80
//
Compound: CC#Cc1cc(Cl)c(C2=C(OC(=O)OC)C3(CCC(OCCOC)CC3)NC2=O)c(CC)c1 (stereo not shown)
Measurement units: %
Quantitative readout: 80
//
Compound: CC#Cc1cc(C)c(C2=C(OC(=O)OCC)C3(CCCC(OCCC)C3)NC2=O)c(Br)c1 (stereo not shown)
Measurement units: %
Quantitative readout: 100
//
Compound: CC#Cc1cc(Br)c(C2=C(O)C3(CCC(OC)CC3)NC2=O)c(C2CC2)c1 (stereo not shown)
Measurement units: %
Quantitative readout: 90
//
Compound: CC#Cc1cc(Cl)c(C2=C(OC(=O)OC(C)(C)C)C3(CCC(OC)CC3)NC2=O)c(CC)c1 (stereo not shown)
Measurement units: %
Quantitative readout: 80
//
Compound: CC#Cc1cc(Br)c(C2=C(O)C3(CCCC(OCCOC)C3)NC2=O)c(C2CC2)c1 (stereo not shown)
Measurement units: %
Quantitative readout: 100
//
Compound: CC#Cc1cc(Br)c(C2=C(OC(=O)OCC)C3(CCCC(OCCOC)C3)NC2=O)c(C2CC2)c1 (stereo not shown)
Measurement units: %
Quantitative readout: 100
//
Compound: CC#Cc1cc(C)c(C2=C(OC(=O)OCC)C3(CCCC(OCC(C)C)C3)NC2=O)c(Cl)c1 (stereo not shown)
Measurement units: %
Quantitative readout: 100
//
Compound: CC#Cc1cc(Cl)c(C2=C(O)C3(CCC(OC)CC3)NC2=O)c(CC)c1 (stereo not shown)
Measurement units: %
Quantitative readout: 100
//
Compound: CC#Cc1cc(Cl)c(C2=C(OC(=O)OCC)C3(CCC(OCC)CC3)NC2=O)c(CC)c1 (stereo not shown)
Measurement units: %
Quantitative readout: 90
//
Compound: CC#Cc1cc(C)c(C2=C(O)C3(CCCC(OCC(C)C)C3)NC2=O)c(Cl)c1 (stereo not shown)
Measurement units: %
Quantitative readout: 100
